protocol: ATG_M_06_CIS: Attagene CIS-FACTORIAL HepG2 Assay for M06 Transcription Factor (Internal Marker) (AID 2282950)
run.parameters: HepG2 Attagene CIS-FACTORIAL M06 internal marker reporter; actives raise or lower the signal
Experimental: ATG_CIS is a cell-based, multiplexed-readout assay that uses HepG2, a human liver cell line, with measurements taken at 24 hours after chemical dosing in a 24-well plate.ATG_M_06_CIS is one of 52 assay component(s) measured or calculated from the ATG_CIS assay. […] This assay endpoint, ATG_M_06_CIS, was analyzed with bidirectional fitting relative to DMSO as the negative control and baseline of activity. […]
Calls of active or inactive are those of the source. The calls were made as follows: active = hit-call score of the fitted dose curve at least 0.9, where 1 is the maximum; inactive = score below 0.9.
observed.property: outcome

Take a look at these entries with their results.
Cc1ccc(N=C=O)cc1N=C=O	inactive
CC(C)(C)OOC(C)(C)CCC(C)(C)OOC(C)(C)C	inactive
CN(C)[C@@H]1C(=O)C(C(N)=O)=C(O)[C@@]2(O)C(=O)C3=C(O)c4c(O)cccc4[C@@](C)(O)[C@H]3C[C@@H]12	inactive
CS(=O)(=O)NC(=O)c1cc(Oc2ccc(C(F)(F)F)cc2Cl)ccc1[N+](=O)[O-]	inactive
CCC[CH2][Sn]([Cl])([CH2]CCC)[CH2]CCC	inactive
CC(C)COC(=O)c1ccccc1C(=O)OCC(C)C	inactive
CNC(=O)Oc1cccc2c1OC(C)(C)C2	inactive
Clc1ccccc1Cl	inactive
CCCSC(=O)N(CCC)CCC	inactive
Nc1ccc(Cc2ccc(N)cc2)cc1	inactive

## Task State, in one line, measured outcome of CCNS(=O)(=O)C(F)(F)C(F)(F)C(F)(F)C(F)(F)C(F)(F)C(F)(F)C(F)(F)C(F)(F)F
## Result inactive

## Task Kindly indicate its recorded outcome. Item: CCC(C)c1ccc(O)cc1 (configuration not stated)
## Result inactive

Ref: PubChem BioAssay (EPA / NIEHS)
